Numbers sourced from the supplement of paper PMC6555819.

system: PPARg DBDmut:RXRa IVT, anti-PPARg (DBD mutation: PPARg1 K132A/R137A, NR concentration 270 nM, RXRa partner concentration 90 nM); experiment: PBM binding z-score (relative to random genomic background probes); higher = stronger binding; sequences stand for … in GC…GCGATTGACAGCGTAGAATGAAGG
Recorded PBM binding z-score split into classes band A: < -0.2; band B: ≥ -0.2 and < 0.5; band C: ≥ 0.5

Example results:
• CCTACTGGGCCAAAGGTCATTGAATCCAATGCTC = band B
• CCGACTGGGCCATCAGGTCATTGATATCAACGTT = band A

Place this sequence in its band: "TCTATTAGTTGAAGGGCAGCCGACGAGTCCGTTT"
band B

What would you report for "TTACCAAAGTGAAGGTCGTTGATCCCTCTGTAGA" ?
band A

Field entry: "TCATATAGGTAAACAGGTGAAACTCCGTAAGTTA"
band C

Further, for "TGTTGTAGATCAACAGGAGGTTAAGAAAGATCGA" ?
band B

Follow-up entry: "GCTGCTAGGTCAACTGATGATCAGCTAAAGCTCG"
band A

Could you do the same for "TCTCGGAGGACATGAAAGGTCAGAGCTCGACATC" , please?
band B

Check "CAAACTAAGTCAAAGGTCAAAGTCGAGCCAACCA" too.
band C

Also check "GCAGACAGGTGAAACGCGGGTAACTCAGGGTGGC"
band A

====

test system: PPARg:RXRa 30nM:10nM, anti-RXR (NR concentration 30 nM, RXRa partner concentration 10 nM); test: PBM binding z-score (relative to random genomic background probes); higher = stronger binding; sequences stand for … in GC…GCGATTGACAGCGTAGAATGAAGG
Param threshold (1) applies to PBM binding z-score; output condition met when value >= threshold, condition not met when value < threshold.

Given "TAGCCTAGGTCATTCTGGGGCCAGTATAGAAAGC" , state whether its PBM binding z-score is at least 1.
condition not met

====

tested on: PPARg DBDmut:RXRa IVT, anti-PPARg (DBD mutation: PPARg1 K132A/R137A, NR concentration 270 nM, RXRa partner concentration 90 nM); test: PBM binding z-score (relative to random genomic background probes); higher = stronger binding; sequences stand for … in GC…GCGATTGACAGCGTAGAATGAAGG
readout_type: PBM binding z-score
Lab note: record the figure alone, no unit after it.

• GGAACGAGGGCAAAGTCGATAGCATCTGTCGACG = 0.306
• GCTTGTAGATCAAGATTAAGAAAGACTAAGCTAA = 0.0686
• ATATGTCGGTTAGCTGGGGTCATTCAGACTAGGC = 0.889
• ACTATTAGTTGAGACGAGGGCAACAGATAGGTTG = 0.565
• TCTTGTAGATCAAGAAGGTTAAGAAAGCCTGAGT = -0.357
• AGTCAAAGTTCACTCGGTAACGTAAGATTCAGCT = 1.02

State the recorded PBM binding z-score for this entry: "CAAACTAGGGCACAGAGGTCAAAGTCCGTGCGTA"
4.77

Also "TCATATAGGTAAAGGTGAGAGTCGAACGATATGA" , if possible.
1.24

// query: "CCTAGTAGGCCAATCTGGGTCACTCAAGGCTTGA"
0.0197

Next up: "ATATGTAGGTTACATCCGGGTCATTAAGGCTATG"
1.96

Also check "TCGAGTAGGTTACCAAAGGGGCATTCAGCTTTCT"
0.155

// same read-out, input: "GCTAGTTGGTCCGTAAAAGGTCACACACCGGTCG"
0.724

Input "TCATATAGGTAATCCAGGTGAAAGTCGGCATCTA"
1.66

====

system: PPARg:RXRa (NR concentration 180 nM, RXRa partner concentration 90 nM); experiment: PBM binding z-score (relative to random genomic background probes); higher = stronger binding; sequences stand for … in GC…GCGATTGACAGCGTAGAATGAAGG
Decision: PBM binding z-score >= 6 yields 1, all other cases yield -1.

Some solved entries appear below for comparison.
- CGAACTAGGTCATTGTCAGGACAGTGAATAGTAA: 1
- TCTTGTAGATCCGCAGGTTAAGAAAGCTGGCCAA: -1

Evaluate "TTACCAAGGTGAGCTGAGGGCGTTGATCCAACTC" : PBM binding z-score at minimum 6?
-1

====

tested on: PPARg:RXRa (NR concentration 180 nM, RXRa partner concentration 90 nM); assay: PBM binding z-score (relative to random genomic background probes); higher = stronger binding; sequences stand for … in GC…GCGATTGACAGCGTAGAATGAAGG
Each entry below carries its recorded PBM binding z-score.
Hey, just send me the number, nothing else.

Solved cases (2 shown):
• CCAGACAGGTGAGAGGTAACTCAGTCTGGTACGC = 2.93
• ATCGAAAGGTCGACGGGGTGAGTATACACCGTTT = 3

Then there is this sequence:
Could you share which PBM binding z-score value was measured for "ATCGAAAGGTCGAGGTTAGTATAGAGAAAGGGAA" ?
3.03

====

test system: PPARg homodimer (NR concentration 180 nM); assay: PBM binding z-score (relative to random genomic background probes); higher = stronger binding; sequences stand for … in GC…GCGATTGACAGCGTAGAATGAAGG
readout_type: PBM binding z-score

Solved cases below.
* GCTCGGAGGGCAAGGTCAGAGCTTTGTCCGTAGA | 2.03
* TCGAATAGGTTACCAATGGGGCATTCAGCTTTCT | 0.402
* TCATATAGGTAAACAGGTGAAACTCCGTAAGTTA | 1.21
* TCTACAGGGTCAAAGGCCAGAGTACGAATGTCGA | 1.6
* CAGCCTACGTCAGGGCCAGTATAGGAGGAACGTT | -0.116

For "ATCTCTCGGTAAAGTTCAGTGAAAGATCGATAGA" , what is its reported PBM binding z-score?
1.63

Now consider "AGAACAAGGGCACGCTGAGTTGATAGCAGAGTAG" and answer again.
0.00636

How about "CTCGAAAGGTCGGTTGAGGTGAGTATTCGGATAA" ?
1.02

Input "CAGCCTGGGTCAGGGCCAGTATAGGAGGAACGTT"
0.728

Entry to check: "CCGACTGGGGCATAAGGTTACCATTAGCCAGCCC"
0.694

====

test system: RXRa DBDmut IVT, anti-RXR (DBD mutation: RXRa K156A/R161A, NR concentration 90 nM); assay: PBM binding z-score (relative to random genomic background probes); higher = stronger binding; sequences stand for … in GC…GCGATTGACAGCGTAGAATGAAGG
Reported PBM binding z-score by item:
Respond using a number only.

Solved cases (5 shown):
• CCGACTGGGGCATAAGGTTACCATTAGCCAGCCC = -0.204
• ACTAGCAAGCCAAGTTTGGGTCACTCAAACAAAG = -0.45
• TTACCAAGGAGAAAGGTCGTTGATGCACGCCTTG = 0.362
• TCTAGTTGGTCAAAGCTCACACACTCGAAATGCG = 1.37
• TCTTGTAGATCAACAGGAGGTTGAGAAAGATCGA = 0.313

Value lookup for PBM binding z-score; key = "TCGAGTAGGTTAGGGGCATTCGGAATGGCGTCGA"
0.0579

Similarly, "ACTATTAGTTGAGACGCGGGCAACCGATAGGTTG" ?
0.153

====

system: RXRa homodimer (NR concentration 180 nM); assay: PBM binding z-score (relative to random genomic background probes); higher = stronger binding; sequences stand for … in GC…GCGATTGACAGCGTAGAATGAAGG
Parameter class (string): assigned from measured PBM binding z-score. Ranges: bottom bin (below 0.5), middle bin (0.5 to below 3), top bin (3 or more)

Some solved cases for reference:
- CGTCCAAGGCCATAGGAGGTCAGTGAAGACAGAT: middle bin
- TCTAGCAGTCCAGAGGGTCACTCAAGAGGTACGG: middle bin
- CCTGCTAGGTCACTGGTCAGCTAAAGCAGCTCGC: middle bin
- GCTTGGAGATCAAGGTTAAGAAAGACTAAGCTAA: middle bin
- ATCTCTAGGTAAAAGTTCAGTGGATCCCGAGGAT: middle bin
- ATCTCTAGGTACCCAAGTTCAGTGAATGCCGAAC: middle bin
- TCGAGTAGGTTAGTCGGGGGATTCAGCCAACATA: bottom bin
- ATACAAAGGTGATCGTGAGGTCGTTGATACTAAC: middle bin
- CCTGCTAGATCATGGTCAGCTAATCTACAGTATG: bottom bin
- CCTAGCAGGCAAGGGTCACTCAAGCATTTCGCTT: top bin

Each sequence maps to one class by PBM binding z-score. Which class for "CCGTCTGGGGCATAAGGTTACCATAAGCCAGCCC" ?
middle bin

Moving on to "GATACAGTGTCAGCTAGAGGCCAGAGTATGGAAA"
bottom bin

Next sequence: "GCAAGTTGGTCAGTAAAAGGTCACACACCGGTCG"
top bin
